- assayExplanation: DRUGMATRIX: Calcium Channel Type L, Phenylalkylamine radioligand binding (ligand: [3H] (-)-Desmethoxyverapamil (D-888))
- Assay type: cell membranes, Rattus norvegicus, Wistar, Brain, Membrane
- runParameters: Not Active = under 50% inhibition at 10 µM
measuredProperty: IC50

• CC(=O)O[C@]1(C(C)=O)CC[C@H]2[C@@H]3C[C@H](C)C4=CC(=O)CC[C@]4(C)[C@H]3CC[C@@]21C [MEDROXYPROGESTERONE ACETATE] = Not Active
• Cc1cn([C@H]2C=C[C@@H](CO)O2)c(=O)[nH]c1=O [STAVUDINE] = Not Active
• CC(C)Cn1cnc2c(N)nc3ccccc3c21 [IMIQUIMOD] = Not Active
• CCO [ALCOHOL] = Not Active
• NC(=O)NC(=O)Cc1ccccc1 [PHENACEMIDE] = Not Active

Entry under review: O=C(O)c1ccccc1 [BENZOIC ACID] . Reported IC50?
Not Active

Entry under review: OC[C@H]1OC2C3[C@@H](CO)OC(O[C@H]4[C@H](O)[C@@H](O)[C@@H](O[C@H]5[C@H](O)[C@@H](O)[C@@H](O[C@H]6[C@H](O)[C@@H](O)[C@@H](O[C@H]7[C@H](O)[C@@H](O)[C@@H](O[C@H]8[C@H](O)[C@@H](O)[C@@H](O[C@H]9[C@H](O)[C@@H](O)C(OC1[C@H](O)[C@H]2O)O[C@@H]9CO)O[C@@H]8CO)O[C@@H]7CO)O[C@@H]6CO)O[C@@H]5CO)O[C@@H]4CO)[C@H](O)[C@H]3O . Reported IC50?
Not Active

Entry under review: Nc1nc(N)c2nc(-c3ccccc3)c(N)nc2n1 . Reported IC50?
Not Active

Entry under review: O=C(O)CCc1nc(-c2ccccc2)c(-c2ccccc2)o1 [OXAPROZIN] . Reported IC50?
Not Active

----------
- targetEntity: cGMP-specific 3',5'-cyclic phosphodiesterase (Homo sapiens)
- assayExplanation: DRUGMATRIX: Phosphodiesterase PDE5 enzyme inhibition (substrate: [3H]cGMP + cGMP)
- Type: tissue-based, Platelet
- runParameters: platelet; Not Active = under 50% inhibition at 10 µM
measuredProperty: IC50

Some compounds with known IC50 results, for comparison:
* COc1cc([C@@H]2c3cc4c(cc3[C@H](O)[C@H]3COC(=O)[C@H]23)OCO4)cc(OC)c1OC | Not Active
* c1ccc(Cn2ccnc2)cc1 | Not Active
* CN(CCOc1ccc(C[C@H](Nc2ccccc2C(=O)c2ccccc2)C(=O)O)cc1)c1ccccn1 | Not Active
* CC[C@@]1(O)C(=O)OCc2c1cc1n(c2=O)Cc2cc3c(CN(C)C)c(O)ccc3nc2-1 | Not Active
* Cc1cc2c(s1)Nc1ccccc1N=C2N1CCN(C)CC1 | Not Active
* CC(=O)[C@]1(O)Cc2c(O)c3c(c(O)c2[C@@H](O[C@H]2C[C@H](N)[C@H](O)[C@H](C)O2)C1)C(=O)c1ccccc1C3=O | Not Active
* CC(=O)O[C@]1(C(C)=O)CC[C@H]2[C@@H]3C[C@H](C)C4=CC(=O)CC[C@]4(C)[C@H]3CC[C@@]21C [MEDROXYPROGESTERONE ACETATE] | Not Active
* NC(=O)CN1CCCC1=O | Not Active
* CC(C)(C)NC[C@H](O)COc1cccc2c1CCCC2=O | Not Active
* CCN(CC)N=O | Not Active

Entry under review: CCN1CCN(c2cc3c(cc2F)c(=O)c(C(=O)O)cn3C2CC2)CC1 . Reported IC50?
Not Active

Entry under review: Cc1ccc(S(=O)(=O)NC(=O)NN2CCCCCC2)cc1 [TOLAZAMIDE] . Reported IC50?
Not Active

Entry under review: CC[C@H](C)[C@@H](CO[C@@H](Cc1ccccc1)C(=O)N[C@@H](CCS(C)(=O)=O)C(=O)OC(C)C)NC[C@@H](N)CS . Reported IC50?
Not Active

----------
- targetEntity: Carbonic anhydrase 2 (Homo sapiens)
- assayExplanation: DRUGMATRIX: Carbonic Anhydrase II enzyme inhibition (substrate: 4-Nitrophenyl acetate (4-NPA))
- Type: tissue-based, Erythrocyte
- runParameters: Not Active = under 50% inhibition at 10 µM; read-out: IC50
measuredProperty: IC50

Entry under review: CC1(COc2ccc(CC3SC(=O)NC3=O)cc2)CCCCC1 (stereo unspecified) . Reported IC50?
86 nM

----------
- assayExplanation: DRUGMATRIX: GABAA, Flunitrazepam, Central radioligand binding (ligand: [3H] Flunitrazepam)
- Assay type: cell membranes, Rattus norvegicus, Wistar, Brain, Membrane
- runParameters: Not Active = under 50% inhibition at 10 µM
measuredProperty: IC50

• NS(=O)(=O)c1cc(C(=O)O)c(NCc2ccco2)cc1Cl [FUROSEMIDE] = Not Active
• Nc1nc(F)nc2c1ncn2[C@@H]1O[C@H](CO)[C@@H](O)[C@@H]1O [FLUDARABINE] = Not Active
• CC1(C)[C@H](C(=O)O)N2C(=O)C[C@H]2S1(=O)=O [SULBACTAM] = Not Active
• CC1(COc2ccc(CC3SC(=O)NC3=O)cc2)CCCCC1 (configuration not stated) [CIGLITAZONE] = Not Active

Entry under review: CCOc1cc(N)c(Cl)cc1C(=O)NCC1CN(Cc2ccc(F)cc2)CCO1 (configuration not stated) [MOSAPRIDE] . Reported IC50?
Not Active

Entry under review: C=CCO [ALLYL ALCOHOL] . Reported IC50?
Not Active

Entry under review: C1CCN2C[C@@H]3C[C@@H](CN4CCCC[C@@H]34)[C@H]2C1 [SPARTEINE] . Reported IC50?
Not Active

Entry under review: C[C@H](C(=O)O)c1ccc2oc(-c3ccc(F)cc3)nc2c1 [FLUNOXAPROFEN] . Reported IC50?
Not Active

Entry under review: NC(N)=Nc1nc(CSCCC(N)=NS(N)(=O)=O)cs1 [FAMOTIDINE] . Reported IC50?
Not Active

----------
- targetEntity: 3-hydroxy-3-methylglutaryl-coenzyme A reductase (Homo sapiens, UniProt P04035);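 also: enzyme inhibition assay of HMG-CoA reductase using radiolabeled [14C]HMG-CoA as substrate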; also: in other assays of this panel Not Active means under 50% inhibition at 10 µM
- Sequence (P04035 whole entry): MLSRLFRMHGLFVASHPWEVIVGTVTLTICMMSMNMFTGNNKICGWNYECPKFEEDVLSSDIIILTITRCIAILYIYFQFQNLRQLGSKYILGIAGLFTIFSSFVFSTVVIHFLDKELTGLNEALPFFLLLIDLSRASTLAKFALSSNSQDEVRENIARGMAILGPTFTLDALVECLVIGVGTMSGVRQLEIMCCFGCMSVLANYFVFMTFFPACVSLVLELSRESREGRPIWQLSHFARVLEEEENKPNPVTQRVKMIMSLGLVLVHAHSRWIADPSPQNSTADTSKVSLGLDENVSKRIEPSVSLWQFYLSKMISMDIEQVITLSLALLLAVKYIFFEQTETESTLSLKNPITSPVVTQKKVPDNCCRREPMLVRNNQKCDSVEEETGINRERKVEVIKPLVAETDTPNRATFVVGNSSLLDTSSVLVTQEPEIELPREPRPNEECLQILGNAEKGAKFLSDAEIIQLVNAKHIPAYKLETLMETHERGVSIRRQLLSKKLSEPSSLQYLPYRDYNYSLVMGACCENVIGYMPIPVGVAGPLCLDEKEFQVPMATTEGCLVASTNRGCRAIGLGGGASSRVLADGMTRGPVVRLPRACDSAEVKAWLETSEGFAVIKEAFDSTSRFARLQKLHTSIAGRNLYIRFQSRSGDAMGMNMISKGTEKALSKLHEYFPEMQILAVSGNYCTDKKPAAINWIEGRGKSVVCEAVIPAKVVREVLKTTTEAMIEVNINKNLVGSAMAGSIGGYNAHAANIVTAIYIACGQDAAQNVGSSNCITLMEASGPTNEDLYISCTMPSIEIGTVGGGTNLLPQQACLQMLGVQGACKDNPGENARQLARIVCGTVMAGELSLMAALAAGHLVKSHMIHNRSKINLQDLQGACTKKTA
- Set-up: species or system Escherichia coli
measuredProperty: IC50

Some molecules with known IC50 results, for comparison:
- CO[C@@H]1[C@@H](OC)[C@H](C)[C@@](O)(CC(=O)O)O[C@H]1[C@H](C)[C@H]1O[C@@]2(CC[C@@](C)([C@H]3CC[C@@](C)([C@@H]4O[C@@H]([C@H]5O[C@](C)(O)[C@H](C)C[C@@H]5C)C[C@@H]4O[C@@H]4C[C@H](OC)[C@@H](OC)[C@H](C)O4)O3)O2)C[C@H](O)[C@H]1C.N: Not Active
- O=C(c1ccccc1)c1ccc2n1CCC2C(=O)O (stereo not given): Not Active
- CN1C[C@H](CNC(=O)OCc2ccccc2)C[C@@H]2c3cccc4c3c(cn4C)C[C@H]21: Not Active
- OC[C@H]1O[C@@H]2O[C@H]3[C@H](O)[C@@H](O)[C@@H](O[C@H]4[C@H](O)[C@@H](O)[C@@H](O[C@H]5[C@H](O)[C@@H](O)[C@@H](O[C@H]6[C@H](O)[C@@H](O)[C@@H](O[C@H]7[C@H](O)[C@@H](O)[C@@H](O[C@H]8[C@H](O)[C@@H](O)[C@@H](O[C@H]1[C@H](O)[C@H]2O)O[C@@H]8CO)O[C@@H]7CO)O[C@@H]6CO)O[C@@H]5CO)O[C@@H]4CO)O[C@@H]3CO: Not Active

In the following, a different molecule is considered.
Entry under review: CC12CCC(CC1=O)C2(C)C (stereo not given) . Reported IC50?
Not Active

----------
- targetEntity: 5-hydroxytryptamine receptor 1B (Rattus norvegicus, UniProt P28564); also: in other assays of this panel Not Active means under 50% inhibition at 10 µM
- Sequence (P28564 whole entry): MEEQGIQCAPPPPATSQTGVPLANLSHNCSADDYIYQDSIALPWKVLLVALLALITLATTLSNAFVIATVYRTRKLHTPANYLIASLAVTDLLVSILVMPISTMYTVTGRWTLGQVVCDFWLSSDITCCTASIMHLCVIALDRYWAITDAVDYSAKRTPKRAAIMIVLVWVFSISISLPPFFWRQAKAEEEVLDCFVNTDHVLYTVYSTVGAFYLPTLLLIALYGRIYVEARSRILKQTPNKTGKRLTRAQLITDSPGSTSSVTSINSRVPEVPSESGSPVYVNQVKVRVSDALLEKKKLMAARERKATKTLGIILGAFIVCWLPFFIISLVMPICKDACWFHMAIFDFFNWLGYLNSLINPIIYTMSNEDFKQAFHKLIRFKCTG
- Assay type: cell membranes, Wistar, Cerebral cortex, Membrane
- runParameters: read-out: Ki
Recorded log10(Ki), one value per entry.
// units: nM (pre-log); metric: Ki; scale: log10

Entry under review: Cc1cc(C(C)(C)C)c(O)c(C)c1CC1=NCCN1 . Reported log10(Ki)?
-0.04

Entry under review: COc1ccccc1OCCNCC(O)COc1cccc2[nH]c3ccccc3c12 (stereo unspecified) . Reported log10(Ki)?
2.77

Entry under review: CC(N)Cc1c[nH]c2ccc(OCc3cccs3)cc12 (stereo unspecified) . Reported log10(Ki)?
2.60

Entry under review: Cc1cc2c(s1)Nc1ccccc1N=C2N1CCN(C)CC1 . Reported log10(Ki)?
2.64

Entry under review: CCN(CC)C(=S)SSC(=S)N(CC)CC . Reported log10(Ki)?
3.33

Entry under review: CN1C[C@H](CNC(=O)OCc2ccccc2)C[C@@H]2c3cccc4c3c(cn4C)C[C@H]21 . Reported log10(Ki)?
1.04
